Data provenance is patent US5399487A.

# protocolDetails: Fluorescence of 6-amino-1-naphthalenesulfonamides and substrates
# Format: physicochemical
# setupConditions: free fluorophore
quantityName: Emission Maxima (nm)
API: value field is a number in nm; no unit string.

Example results:
What value of Emission Maxima has been recorded for this entry: `CCCCNS(=O)(=O)c1cccc2cc(N)ccc12`
467

# iterate: `CC(C)(C)NS(=O)(=O)c1cccc2cc(N)ccc12`
465

# iterate: `Nc1ccc2c(S(=O)(=O)NCc3ccccc3)cccc2c1`
467

# iterate: `CCNS(=O)(=O)c1cccc2cc(N)ccc12`
466

# iterate: `CCCNS(=O)(=O)c1cccc2cc(N)ccc12`
470

# iterate: `Nc1ccc2c(S(=O)(=O)NC3CCCCC3)cccc2c1`
466

# iterate: `Nc1ccc2c(S(=O)(=O)N3CCOCC3)cccc2c1`
476

# iterate: `CNS(=O)(=O)c1cccc2cc(N)ccc12`
468

Continuing:
What value of Emission Maxima has been recorded for this entry: `CN(C)S(=O)(=O)c1cccc2cc(N)ccc12`
472

----------
# targetUnderTest: thrombin (IIa) (Homo sapiens)
# Construct: 0.5 nM human thrombin (IIa)
# protocolDetails: Fluorogenic enzyme assay (Example 5)
# Assay type: biochemical
# setupConditions: 10 nM enzyme, substrate 1 μM
quantityName: TIME TO 10% HYDROLYSIS (HOURS), IIa (h)
API: value field is a number in h; no unit string.

What value of TIME TO 10% HYDROLYSIS (HOURS), IIa has been recorded for this entry: `CN(C)S(=O)(=O)c1cccc2cc(NC(=O)[C@H](CCCNC(=N)N)NC(=O)[C@H](CCCCNC(=O)OCc3ccccc3)NC(=O)OC(C)(C)C)ccc12`
18

Continuing:
What value of TIME TO 10% HYDROLYSIS (HOURS), IIa has been recorded for this entry: `CCN(CC)S(=O)(=O)c1cccc2cc(NC(=O)[C@H](CCCNC(=N)N)NC(=O)CNC(=O)[C@@H](CC(C)C)NS(C)(=O)=O)ccc12`
0.33

# iterate: `CCCNS(=O)(=O)c1cccc2cc(NC(=O)[C@H](CCCNC(=N)N)NC(=O)[C@H](Cc3ccccc3)NC(=O)[C@@H]3CCCN3C(=O)OC(C)(C)C)ccc12`
4

# iterate: `N=C(N)NCCC[C@H](NC(=O)CNC(=O)CNC(=O)OCc1ccccc1)C(=O)N[C@@H](CCCNC(=N)N)C(=O)Nc1ccc2c(S(=O)(=O)NC3CCCCC3)cccc2c1`
93

----------
# protocolDetails: Fluorescence of 6-amino-1-naphthalenesulfonamides and substrates
# Type: physicochemical
# setupConditions: TBS, pH 7.4, 22°C., 1 μM; relative to ANSNH(i-C4 H9); excitation 352 nm, emission 470 nm
Listed here are compounds together with their documented Relative Fluorescence.

What value of Relative Fluorescence has been recorded for this entry: CCCNS(=O)(=O)c1cccc2cc(N)ccc12 [ANSNR1 R2; H; C3 H7]
93

# iterate: CCNS(=O)(=O)c1cccc2cc(N)ccc12 [ANSNR1 R2; H; C2 H5]
78

# iterate: CCN(CC)S(=O)(=O)c1cccc2cc(N)ccc12 [ANSNR1 R2; C2 H5; C2 H5]
89

Continuing:
What value of Relative Fluorescence has been recorded for this entry: Nc1ccc2c(S(=O)(=O)N3CCCCCC3)cccc2c1 [ANSNR1 R2; (CH2)6]
96
